Please respond with reported IC50 for every item in the list.
Molecular target: AHR (Homo sapiens)
Test: In vitro assay 3: AHR-regulated CYP1A1 expression in human cell line (U937, qPCR, KA stimulation)
Type: cell-based
Conditions: U937 cells, 200 uM KA, 6 hours, CYP1A1 expression by qPCR; read-out: Assay 3: Hum CYP1A1 Antagonism IC50
Only the number, expressed in nM, is required.

[ask] Which measured IC50 value corresponds to C[C@H](NC(=O)c1cc(-c2ccc(C(F)(F)F)cc2)nn(-c2cn[nH]c2)c1=O)C(C)(C)O ?
[reply] 14.4

[ask] Moving on to C[C@@H](CO)NC(=O)c1cc(-c2ccc(Cl)cc2)nn(-c2ccn(C)n2)c1=O
[reply] 4.3

[ask] Moving on to Cn1cc(-n2nc(-c3ccc(C(F)(F)F)cc3)cc(C(=O)N[C@H]3CCC[C@H]3O)c2=O)cn1
[reply] 1.55

[ask] Moving on to O=C(N[C@H]1COC[C@H]1O)c1cc(-c2ccc(OC(F)(F)F)cc2)nn(-c2cccnc2)c1=O (single isomer, unassigned; enantiomer 1) [Example 158]
[reply] 25.2

---

Please respond with reported IC50 for every item in the list.
Biological target: AHR (Homo sapiens, UniProt P35869)
Sequence (P35869 11-848): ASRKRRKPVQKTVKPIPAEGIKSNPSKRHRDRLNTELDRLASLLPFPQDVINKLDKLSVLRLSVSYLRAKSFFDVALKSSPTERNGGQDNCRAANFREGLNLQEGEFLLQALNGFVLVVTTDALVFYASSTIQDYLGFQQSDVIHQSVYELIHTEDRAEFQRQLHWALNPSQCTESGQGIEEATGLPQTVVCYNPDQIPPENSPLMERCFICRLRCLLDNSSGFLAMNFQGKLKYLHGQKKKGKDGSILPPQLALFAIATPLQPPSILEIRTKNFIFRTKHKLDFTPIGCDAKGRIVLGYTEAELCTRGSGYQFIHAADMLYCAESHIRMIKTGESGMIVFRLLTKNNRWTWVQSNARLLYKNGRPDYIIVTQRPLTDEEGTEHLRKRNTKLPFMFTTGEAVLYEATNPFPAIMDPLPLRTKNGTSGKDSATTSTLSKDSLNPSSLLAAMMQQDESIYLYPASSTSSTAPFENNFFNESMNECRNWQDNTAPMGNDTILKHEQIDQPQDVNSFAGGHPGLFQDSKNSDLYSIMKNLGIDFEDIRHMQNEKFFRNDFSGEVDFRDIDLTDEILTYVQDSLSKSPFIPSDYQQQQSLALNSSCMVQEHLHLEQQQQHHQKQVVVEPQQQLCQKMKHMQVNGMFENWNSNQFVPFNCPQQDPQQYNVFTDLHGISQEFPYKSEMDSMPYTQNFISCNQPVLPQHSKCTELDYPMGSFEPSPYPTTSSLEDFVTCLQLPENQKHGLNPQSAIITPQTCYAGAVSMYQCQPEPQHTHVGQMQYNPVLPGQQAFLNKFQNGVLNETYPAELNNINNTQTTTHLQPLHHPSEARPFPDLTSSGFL
Assay: In vitro assay 3: AHR-regulated CYP1A1 expression in human cell line (U937, qPCR, KA stimulation)
Format: cell-based
Conditions: U937 cells, 200 uM KA, 6 hours, CYP1A1 expression by qPCR; read-out: Assay 3: Hum CYP1A1 Antagonism IC50
Only the number, expressed in µM, is required.

[ask] Param readout = IC50; param system = AHR (Homo sapiens, UniProt P35869); param query = Cn1cc(-n2nc(-c3ccc(C(F)F)cc3)cc(C(=O)NCC(C)(C)O)c2=O)cn1 ; response: value
[reply] 0.0191

[ask] Moving on to Cn1cc(-n2nc(-c3ccc(Cl)cc3)cc(C(=O)NCC(C)(C)O)c2=O)cn1
[reply] 0.0219

[ask] Moving on to O=C(N[C@@H]1CCC[C@@H]1O)c1cc(-c2ccc(Cl)cc2)nn(-c2cccnc2)c1=O
[reply] 0.00761

[ask] Moving on to O=C(N[C@H](CO)CF)c1cc(-c2ccc(Cl)cc2)nn(-c2cccnc2)c1=O
[reply] 0.00432

---

Molecular target: AHR (Homo sapiens)
Assay: In vitro assay 3: AHR-regulated CYP1A1 expression in human cell line (U937, qPCR, KA stimulation)
Assay type: cell-based
Details: U937 cells, 200 uM KA, 6 hours, CYP1A1 expression by qPCR; read-out: Assay 3: Hum CYP1A1 Antagonism IC50
Quantity kind: pIC50
Schema: pIC50 number; meaning minus log10 of the concentration expressed in molar units.

[ask] Which measured pIC50 value corresponds to Cn1cc(-n2nc(-c3ccc(Cl)cc3)cc(C(=O)NCC(O)C(F)F)c2=O)cn1 (stereo not shown) [Example 21] ?
[reply] 7.74

[ask] Moving on to Cn1cc(-n2nc(-c3ccc(C(F)(F)F)cc3)cc(C(=O)N[C@H](CO)C3CC3)c2=O)cn1
[reply] 7.83

[ask] Moving on to Cc1ccc(-c2cc(C(=O)NCC(O)C(F)(F)F)c(=O)n(-c3cnn(C)c3)n2)cc1 (single isomer, unassigned; enantiomer 2) [Example 12]
[reply] 7.73

[ask] Moving on to O=C(N[C@H]1COC[C@H]1O)c1cc(-c2ccc(Cl)cc2)nn(-c2cccnc2)c1=O (single isomer, unassigned) [Example 173]
[reply] 6.85

[ask] Moving on to Cc1ccc(-c2cc(C(=O)N[C@@H](C)CO)c(=O)n(-c3cnn(C)c3)n2)cc1
[reply] 7.80

[ask] Moving on to Cc1ccc(-c2cc(C(=O)NCC(O)C(F)(F)F)c(=O)n(-c3cnn(C)c3)n2)cc1 (single isomer, unassigned; enantiomer 1) [Example 11]
[reply] 9.82

[ask] Moving on to C[C@@H](NC(=O)c1cc(-c2ccc(C(F)(F)F)cc2)nn(-c2cccnc2)c1=O)C(C)(C)O
[reply] 8.02
